biological target: SUMO-activating enzyme (Homo sapiens, UniProt Q9UBT2); assay: blockers of SAE1/SAE2–UBC9 SUMO transfer – biochemical, HTRF, uHTS, primary screen (AID 2006); format: protein-complex assay
Sequence (Q9UBE0 whole entry): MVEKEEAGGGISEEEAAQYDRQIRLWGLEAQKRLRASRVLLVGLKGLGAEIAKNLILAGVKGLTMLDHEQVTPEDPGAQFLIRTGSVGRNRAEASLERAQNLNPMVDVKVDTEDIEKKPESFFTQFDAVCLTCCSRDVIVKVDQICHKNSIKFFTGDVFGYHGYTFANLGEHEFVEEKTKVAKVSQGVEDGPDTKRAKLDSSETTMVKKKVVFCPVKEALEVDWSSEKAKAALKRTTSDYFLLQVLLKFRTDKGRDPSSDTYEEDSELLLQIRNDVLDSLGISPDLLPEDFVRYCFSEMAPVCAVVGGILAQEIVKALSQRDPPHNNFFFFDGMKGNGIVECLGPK
Sequence (Q9UBT2 whole entry): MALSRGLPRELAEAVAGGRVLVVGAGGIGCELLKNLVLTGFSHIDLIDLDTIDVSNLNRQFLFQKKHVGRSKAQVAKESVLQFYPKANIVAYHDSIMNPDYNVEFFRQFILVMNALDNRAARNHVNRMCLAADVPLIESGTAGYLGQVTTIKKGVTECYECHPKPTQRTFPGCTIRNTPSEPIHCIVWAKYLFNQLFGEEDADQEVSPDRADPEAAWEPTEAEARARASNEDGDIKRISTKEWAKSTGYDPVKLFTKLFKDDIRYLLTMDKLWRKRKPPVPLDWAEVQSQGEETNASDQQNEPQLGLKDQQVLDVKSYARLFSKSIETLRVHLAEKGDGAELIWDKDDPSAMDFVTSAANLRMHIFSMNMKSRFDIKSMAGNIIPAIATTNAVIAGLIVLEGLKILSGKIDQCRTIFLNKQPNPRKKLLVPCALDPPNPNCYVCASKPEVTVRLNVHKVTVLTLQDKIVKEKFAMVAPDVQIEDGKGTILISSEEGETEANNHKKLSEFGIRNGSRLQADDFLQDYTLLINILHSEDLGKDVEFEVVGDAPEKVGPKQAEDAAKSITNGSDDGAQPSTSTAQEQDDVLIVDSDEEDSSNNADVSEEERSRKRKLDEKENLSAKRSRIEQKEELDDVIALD
Calls of active or inactive are those of the source.
Consider the following compounds; for each one, report its IC50.

Which IC50 is reported with SUMO-activating enzyme (Homo sapiens, UniProt Q9UBT2) for this entry: COc1ccc(C(=O)Nc2ccc(-c3nnn(CC(=O)N4CCN(C(=O)c5ccco5)CC4)n3)cc2)cc1 ?
30 µM (active)

Which IC50 is reported with SUMO-activating enzyme (Homo sapiens, UniProt Q9UBT2) for this entry: Cc1ccc(NC(=O)CN2C(=O)S/C(=C\c3ccc(-c4cccc(C(=O)O)c4C)o3)C2=O)cc1C ?
6.48 µM (active)

Which IC50 is reported with SUMO-activating enzyme (Homo sapiens, UniProt Q9UBT2) for this entry: CCN(CC)c1ccc(NC(=O)CSc2nc(C3CC3)nc3ccccc23)cc1C ?
27 µM (active)

Which IC50 is reported with SUMO-activating enzyme (Homo sapiens, UniProt Q9UBT2) for this entry: O=C(O)c1ccc(NS(=O)(=O)c2ccc3c(c2)C2C=CCC2C(c2ccccc2F)N3)cc1 (centres undefined) ?
19.5 µM (active)

* * *

biological target: Nuclear receptor subfamily 0 group B member 1 (Homo sapiens, UniProt P51843); format: functional, cell-based;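 also: HEK293T cells transfected with SF-1 and DAX-1 plus StAR promoter luciferase reporter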
Sequence (P51843 whole entry): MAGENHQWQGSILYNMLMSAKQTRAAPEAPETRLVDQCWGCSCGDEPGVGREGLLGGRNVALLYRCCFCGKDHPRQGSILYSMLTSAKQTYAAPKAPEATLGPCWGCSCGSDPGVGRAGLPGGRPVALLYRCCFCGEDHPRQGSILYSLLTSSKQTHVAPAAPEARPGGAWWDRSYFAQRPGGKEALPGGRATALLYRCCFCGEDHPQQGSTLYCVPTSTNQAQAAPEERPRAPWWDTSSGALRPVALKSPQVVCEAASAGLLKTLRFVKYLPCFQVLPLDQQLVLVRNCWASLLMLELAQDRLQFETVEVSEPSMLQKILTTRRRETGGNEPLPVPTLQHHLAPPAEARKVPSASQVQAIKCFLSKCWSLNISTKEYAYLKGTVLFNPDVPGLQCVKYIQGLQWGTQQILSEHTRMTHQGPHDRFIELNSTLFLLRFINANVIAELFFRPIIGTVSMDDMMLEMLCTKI
The source made the active and inactive calls.
Consider the following compounds; for each one, report its IC50.

// lookup IC50 for COc1ccccc1C=C1CCc2ccccc2C1=O
> 67.5 µM (inactive)

// lookup IC50 for COc1ccc2c(c1)CCC/C2=N\NC(=O)c1ccoc1C
> 67.5 µM (inactive)

// lookup IC50 for Cn1cccc1C(=O)NCC1COc2ccccc2O1 (centres undefined)
> 67.5 µM (inactive)

// lookup IC50 for COc1ccccc1-c1nnc2n1N=C(c1ccc3c(c1)OCO3)CS2
> 67.6 µM (inactive)

* * *

molecular target: UniProt:G5EF15; assay: disruptors of C. elegans POS-1 RNA interaction – biochemical, fluorescence polarization, dose response (AID 1964);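 also: purified POS-1 fused to maltose binding protein made in E. coli; potency of compounds blocking POS-1 binding to fluorescent RNA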
Sequence (G5EF15 whole entry, the tested form may be a part): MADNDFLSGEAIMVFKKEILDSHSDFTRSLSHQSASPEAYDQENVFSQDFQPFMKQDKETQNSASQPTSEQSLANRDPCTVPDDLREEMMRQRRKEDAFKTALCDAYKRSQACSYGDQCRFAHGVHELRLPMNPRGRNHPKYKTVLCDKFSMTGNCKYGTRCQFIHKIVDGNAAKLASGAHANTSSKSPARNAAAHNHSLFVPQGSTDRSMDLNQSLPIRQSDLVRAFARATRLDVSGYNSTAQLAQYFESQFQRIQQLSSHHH
Active and inactive are the calls of the source.
Consider the following compounds; for each one, report its EC50.

// lookup EC50 for COc1ccccc1N1C(=O)NC(=O)/C(=C/c2ccc([N+](=O)[O-])s2)C1=O
44.1 µM (active)

// lookup EC50 for Fc1ccc(C2=CC(c3ccco3)n3ncnc3N2)cc1 (configuration not stated)
14.7 µM (active)

// lookup EC50 for N#CC1=C(N)Oc2cc(O)c(Cl)cc2C1c1ccccc1F (configuration not stated)
> 300 µM (not active)

// lookup EC50 for COc1ccc(NC(=O)CCl)cn1
9.67 µM (active)

// lookup EC50 for O=C(O)c1cc(O)c2c(c1)C(=O)c1cccc(O)c1C2=O
29.2 µM (active)

// lookup EC50 for CSc1ccc(C2C(C(=O)c3ccco3)=C(O)C(=O)N2c2nnc(SC)s2)cc1 (configuration not stated)
6.79 µM (active)

// lookup EC50 for O=C/C(=C\Nc1ccccn1)c1nc2ccccc2o1
> 300 µM (not active)

// lookup EC50 for COc1cc(C2C(C#N)=C(N)OC3=C2C(=O)CC(C)(C)C3)c([N+](=O)[O-])cc1OC (configuration not stated)
19.5 µM (active)

// lookup EC50 for COC(=O)/C(C#N)=C/c1c(Oc2cc(C)cc(C)c2)nc2c(C)cccn2c1=O
104 µM (active)

// lookup EC50 for N=c1c(C(=O)NCc2ccc(F)cc2)cc2c(=O)n3ccccc3nc2n1Cc1cccnc1
31.2 µM (inconclusive)

// lookup EC50 for COc1cc(/C=C2/C(=O)NN(c3cccc(C)c3)C2=O)cc([N+](=O)[O-])c1O
> 300 µM (not active)

// lookup EC50 for CCN(CC)c1ccc(/C=C2\C(=O)NC(=S)N(c3ccc(OC)cc3OC)C2=O)o1
> 150 µM (inconclusive)

* * *

biological target: Heat shock factor protein 1 (Mus musculus); assay: enhancement of HSF1-driven luciferase signal – cell-based, NIH3T3, luminescence, dose retest, confirmation (AID 435004); format: functional;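 also: stress induced by proteasome inhibitor MG132 added 30 min after compound; luciferase reporter driven by HSF1 response element in NIH3T3 cells; actives raise luminescence as potentiators of the MG132 stress response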
Sequence (P38532 whole entry): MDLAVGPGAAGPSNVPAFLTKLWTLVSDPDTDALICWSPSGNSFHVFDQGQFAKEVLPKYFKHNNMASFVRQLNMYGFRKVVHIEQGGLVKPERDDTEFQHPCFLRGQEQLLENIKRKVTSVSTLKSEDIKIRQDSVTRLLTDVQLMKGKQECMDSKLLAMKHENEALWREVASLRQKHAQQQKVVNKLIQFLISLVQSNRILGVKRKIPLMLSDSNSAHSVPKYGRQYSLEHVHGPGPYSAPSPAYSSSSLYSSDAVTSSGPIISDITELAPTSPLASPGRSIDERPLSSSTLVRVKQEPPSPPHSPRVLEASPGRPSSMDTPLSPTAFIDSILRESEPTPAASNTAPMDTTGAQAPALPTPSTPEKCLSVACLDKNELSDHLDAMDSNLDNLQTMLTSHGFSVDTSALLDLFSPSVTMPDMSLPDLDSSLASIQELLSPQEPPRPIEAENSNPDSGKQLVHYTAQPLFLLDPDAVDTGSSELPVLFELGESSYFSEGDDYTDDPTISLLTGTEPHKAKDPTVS
Calls of active or inactive are those of the source.
Select the correct class. Options are active, inactive and nothing else.

Tell me the recorded outcome of this test for CCCc1nc2ccc(NC(=O)c3cccs3)cc2c(=O)n1Cc1ccccc1Cl .
inactive

Tell me the recorded outcome of this test for COc1cc(C(=O)NCCc2ccc(F)cc2)ccc1OCC(=O)N1CCOCC1 .
inactive

Tell me the recorded outcome of this test for COc1ccc(OC)c(N(CC(=O)N2CCC(C)CC2)S(=O)(=O)c2ccccc2)c1 .
inactive

Tell me the recorded outcome of this test for O=C(CSc1nnc(-c2ccco2)n1Cc1ccccc1)OC1CCCCC1 .
active

Tell me the recorded outcome of this test for CC(C)c1ccc2c(c1)[C@H]1OCC[C@H]1[C@@H](c1cccs1)N2 .
inactive

Tell me the recorded outcome of this test for COc1ccc(C(CC(=O)c2ccc(C)cc2)C(C#N)C#N)cc1OC (centres undefined) .
active

Tell me the recorded outcome of this test for CC(C)c1ccc(N(C(=O)CNC(=O)c2ccco2)C(C(=O)NC2CCCC2)c2ccncc2)cc1 (centres undefined) .
inactive

Tell me the recorded outcome of this test for N=c1c2c(-c3ccccc3)c(-c3ccccc3)n(Cc3ccco3)c2ncn1CCCN1CCOCC1 .
inactive

* * *

target: Rac GTPase-activating protein 1 (Homo sapiens); assay: blockers of MgcRacGAP-driven Rac1 GTP hydrolysis – biochemical, ADP Hunter fluorescence, primary and confirmatory, confirmation (AID 624330); type: functional
Sequence (Q9H0H5 whole entry): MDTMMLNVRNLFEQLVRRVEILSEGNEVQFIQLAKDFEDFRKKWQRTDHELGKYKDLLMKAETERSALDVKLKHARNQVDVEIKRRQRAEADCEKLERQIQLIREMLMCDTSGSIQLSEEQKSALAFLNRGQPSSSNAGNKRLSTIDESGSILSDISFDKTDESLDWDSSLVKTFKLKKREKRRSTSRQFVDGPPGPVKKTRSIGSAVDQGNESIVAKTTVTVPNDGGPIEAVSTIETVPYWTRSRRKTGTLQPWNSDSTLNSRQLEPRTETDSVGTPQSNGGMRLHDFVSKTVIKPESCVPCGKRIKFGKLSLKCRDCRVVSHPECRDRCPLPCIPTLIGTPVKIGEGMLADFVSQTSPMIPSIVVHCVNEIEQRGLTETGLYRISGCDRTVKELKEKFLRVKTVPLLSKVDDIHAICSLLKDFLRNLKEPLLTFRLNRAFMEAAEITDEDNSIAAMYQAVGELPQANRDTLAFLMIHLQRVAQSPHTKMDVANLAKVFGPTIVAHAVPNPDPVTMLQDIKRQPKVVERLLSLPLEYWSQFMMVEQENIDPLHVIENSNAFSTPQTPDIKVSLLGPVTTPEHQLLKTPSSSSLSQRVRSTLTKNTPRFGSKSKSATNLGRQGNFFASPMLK
Activity calls are given as the source filed them.
Consider the following compounds; for each one, report its IC50.

// lookup IC50 for C[n+]1ccc(/C=C/c2ccccc2O)c2ccccc21
178 µM (active)

// lookup IC50 for Cc1ccc(CNc2ccc(N3CCOCC3)cc2)s1
20.1 µM (active)

// lookup IC50 for CC1CC(C)CN(C2CCN(Cc3cccnc3)CC2)C1 (stereo not given)
49.6 µM (active)

// lookup IC50 for CN1CCN(CCCNCc2cn(CCC#N)c3ccccc23)CC1
64.3 µM (active)

// lookup IC50 for COc1cc(CNc2ccc(N3CCOCC3)cc2)cc(Br)c1OC
15.4 µM (active)

// lookup IC50 for Nc1cc2c([N+](=O)[O-])cccc2o1
128 µM (active)

// lookup IC50 for CCOC(=O)c1[nH]c2cc(OC)c(OC)cc2c1N
35 µM (active)

// lookup IC50 for CCC(=O)c1ccccc1OCCN1CCN(CC)CC1
88.2 µM (active)

// lookup IC50 for COc1cc(NCCC(=O)c2cccs2)c(OC)cc1Cl
58.1 µM (active)

// lookup IC50 for O=C(Nc1ccccc1)C1=C(c2ccccc2)S(=O)(=O)CCS1(=O)=O
123 µM (active)

// lookup IC50 for COc1ccc(CN2CCN(C(C)C(=O)N(C)Cc3cccc(F)c3)CC2)cc1OC (stereo not given)
76.2 µM (active)

// lookup IC50 for CCN(CC)S(=O)(=O)c1cccc(C(=O)N/N=C/c2ccc(OC)c(O)c2)c1
76.7 µM (active)

// lookup IC50 for COc1cc(/C=C/c2nc3ccccc3c(=O)n2-c2ccccc2O)ccc1O
40.6 µM (active)

// lookup IC50 for CCN(CC)c1ccc(NC(=O)CSC(=O)c2ccccc2)cc1
83.9 µM (active)

// lookup IC50 for Nc1c(Cl)ncnc1N/N=C/c1ccc(O)cc1
16.5 µM (active)

// lookup IC50 for O=[N+]([O-])c1ccc2c(c1)Cc1cc(O)ccc1-2
16.7 µM (active)

// lookup IC50 for NC(=O)N/N=C/c1ccc(N2CCOCC2)s1
40.4 µM (active)

// lookup IC50 for COc1ccc(NC(=O)C(C)N2CCN(C)CC2)cc1 (stereo not given)
78.1 µM (active)

// lookup IC50 for O=C(CSc1nnc(C2CC2)n1C1CC1)N1CCN(c2ccc(O)cc2)CC1
30.2 µM (active)

// lookup IC50 for Oc1ccc(N=Nc2ccccc2)cc1
70.9 µM (active)

// lookup IC50 for COc1ccc(NCc2cc3cc(OC)ccc3nc2O)cc1
89.3 µM (active)

// lookup IC50 for CCN(CC)CCNCC(=O)Nc1ccc(Oc2ccccc2)cc1
119 µM (active)

// lookup IC50 for COc1ccc(NCc2ccsc2)cc1
29.6 µM (active)

// lookup IC50 for Cn1c(-c2ccc(Cl)cc2)cnc1NCc1cc2c(cc1[N+](=O)[O-])OCO2
73.5 µM (active)

// lookup IC50 for O=C(CN1CCCCCC1)NCC1CCCO1 (stereo not given)
117 µM (active)

* * *

biological target: Caspase-6 (Homo sapiens, UniProt P55212); experiment: inhibition of CASP6 peptide cleavage – biochemical, VEID-R110 fluorescence, cherry-pick, dose response (AID 720632)
Sequence (P55212 24-179 limits assumed): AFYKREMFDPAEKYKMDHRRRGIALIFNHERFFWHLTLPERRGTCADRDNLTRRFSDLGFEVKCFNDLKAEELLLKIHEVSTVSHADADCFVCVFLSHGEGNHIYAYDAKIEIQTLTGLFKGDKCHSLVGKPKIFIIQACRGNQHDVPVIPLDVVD
Sequence (P55212 194-293 limits assumed): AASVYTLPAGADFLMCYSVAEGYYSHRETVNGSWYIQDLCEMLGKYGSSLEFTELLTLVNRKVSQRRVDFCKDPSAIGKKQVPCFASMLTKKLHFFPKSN
Calls of active or inactive are those of the source.
metric name: AC50

// lookup AC50 for N#CC1=C(N)Oc2cc(O)c(Cl)cc2C1c1ccccc1F (stereo not given)
42.2 µM (active)

// lookup AC50 for O=c1nc2s/c(=C\c3ccc(-c4ccccc4[N+](=O)[O-])o3)c(=O)n2nc1-c1ccccc1
18 µM (active)

// lookup AC50 for N#CC1=C(N)Oc2c(c(=O)oc3ccccc23)C1c1ccc([N+](=O)[O-])o1 (stereo not given)
13.9 µM (active)

// lookup AC50 for O=C(N/N=C/c1ccc(OC(=O)c2ccccc2Cl)cc1)c1cc(O)cc(O)c1
1.11 µM (active)

// lookup AC50 for O=C(O)c1ccc(NS(=O)(=O)c2ccc3c(c2)C2C=CCC2C(c2ccccc2F)N3)cc1 (stereo not given)
13.7 µM (active)
